- tested_target: PIK3C2B (human)
- measurement_description: KINOMEscan competition binding
- run_parameters: compound 10.0 µM
parameter: kinase still bound, per cent of control (%)
# number only, unit % dropped from output

Take a look at these entries with their results.
chemical_structure: COc1cc(N2CCN(C)CC2)ccc1Nc1ncc2c(n1)N(C)c1ccccc1C(=O)N2C
parameter: kinase still bound, per cent of control
unit_of_measure: %
measured_value: 100
--
chemical_structure: O=C1NC(=O)/C(=C/c2ccc3nccc(-c4ccncc4)c3c2)S1
parameter: kinase still bound, per cent of control
unit_of_measure: %
measured_value: 0.15
--
chemical_structure: NC(=O)Nc1cc(-c2cccc(F)c2)sc1C(=O)N[C@@H]1CCCNC1
parameter: kinase still bound, per cent of control
unit_of_measure: %
measured_value: 16
--
chemical_structure: COc1cc2ncnc(-n3nc(-c4ccccn4)nc3N)c2cc1OC
parameter: kinase still bound, per cent of control
unit_of_measure: %
measured_value: 0.35

From here, focus on the item given below.
Task: Return kinase still bound, per cent of control (reported value) for this compound: "CS(=O)(=O)N1CCN(Cc2cc3nc(-c4cccc5[nH]ncc45)nc(N4CCOCC4)c3s2)CC1"
Result: 22
